System: Balb/3T3 non-tumor fibroblasts
ASSAY EXPLANATION: MTT reduction assay, non-tumor fibroblasts
Assay type: cell-based
CONDITION NOTES: Mus musculus, 48 h incubation, mean of at least three experiments, read-out: EC50 ± SEM BALB/3T3
pEC50: −log10 of the molar value.
Threshold check on pEC50: at or above 4 gives rule met, strictly below gives rule not met.

Please review the following examples before continuing.
MOLECULE	CATEGORY
Cc1cccc(C(=O)c2cc(O)c3ccccc3c2O)c1	rule not met
COc1cc(C(=O)c2cc(O)ccc2O)cc(OC)c1O	rule met
COc1cc(C(=O)c2cc(O)ccc2O)cc(OC)c1OC	rule met
O=C(c1ccccc1)c1cc(O)ccc1O [compound 3, (2,5-Dihydroxyphenyl)(phenyl)methanone]	rule met
Cc1ccc(C(=O)c2cc(O)c3ccccc3c2O)cc1	rule not met

Entry Cc1ccccc1C(=O)c1cc(O)ccc1O : is its pEC50 no less than 4?
rule not met

Is the recorded value of pEC50 equal to or greater than 4 for this molecule? COc1cccc2c1C(=O)c1c(O)c3c(c(O)c1C2=O)C[C@@](O)(C(=O)CO)C[C@@H]3O[C@H]1C[C@H](N)[C@H](O)[C@H](C)O1 [DOX, doxorubicin, reference compound]
rule met

hey, is pEC50 for this one >= 4? COc1ccc(OC)c(C(=O)c2cc(O)ccc2O)c1
rule met

Assess whether reported pEC50 for COc1ccc(C(=O)c2cc(O)c3ccccc3c2O)cc1OC sits at 4 or higher.
rule met
